Target: human V1a receptor (Homo sapiens, UniProt P37288)
Construct: expressed in transfected cells; host or cells: HEK293 cells, transiently transfected; cell membranes
Sequence (P37288 whole entry): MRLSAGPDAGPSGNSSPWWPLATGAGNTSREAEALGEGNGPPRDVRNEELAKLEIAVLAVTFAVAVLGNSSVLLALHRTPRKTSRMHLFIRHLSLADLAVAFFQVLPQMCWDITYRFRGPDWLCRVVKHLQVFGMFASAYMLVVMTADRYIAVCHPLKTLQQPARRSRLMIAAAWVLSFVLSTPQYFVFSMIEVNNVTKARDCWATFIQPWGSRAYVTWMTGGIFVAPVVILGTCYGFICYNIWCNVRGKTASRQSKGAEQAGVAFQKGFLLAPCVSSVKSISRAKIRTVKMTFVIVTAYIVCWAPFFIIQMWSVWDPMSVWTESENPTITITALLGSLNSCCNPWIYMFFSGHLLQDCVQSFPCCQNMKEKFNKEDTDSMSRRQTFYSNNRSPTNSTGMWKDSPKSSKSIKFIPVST
Assay: human V1a receptor binding (3H-Vasopressin SPA, HEK293 membranes)
Counter-ions that a name gives are not always drawn.
MEASURE: Ki (nM)
Number only, in nM; omit the unit.

Some molecules with known Ki results, for comparison:
Looking up CC(C)(C)OC(=O)N1Cc2cc(Cl)ccc2-n2c(nnc2[C@H]2CC[C@H](c3noc4ncccc43)CC2)C1 [Example 16] , I see its Ki listed as 3.63

Looking up CN1Cc2cc(Cl)ccc2-n2c(nnc2[C@H]2CC[C@@H](c3noc4ccccc43)CC2)C1 [Example 4] , I see its Ki listed as 7.59

Looking up Clc1ccc2c(c1)CNCc1nnc([C@H]3CC[C@H](c4nsc5ccccc54)CC3)n1-2 [Example 20, hydrochloride] , I see its Ki listed as 1.51

Please turn your attention to the following entry.
Looking up CN1Cc2cc(Cl)ccc2-n2c(nnc2[C@H]2CC[C@H](c3noc4ccccc43)CC2)C1 [Example 6] , I see its Ki listed as 0.794

* * *

Biological target: human V1a receptor (Homo sapiens, UniProt P37288)
Construct: expressed in transfected cells; host or cells: HEK293 cells, transiently transfected; cell membranes
Assay: human V1a receptor binding (3H-Vasopressin SPA, HEK293 membranes)
Details: 3H-Vasopressin displacement, membranes of HEK293 cells transiently transfected with human V1a receptor; Ki by Cheng-Prusoff; read-out: pKi (hV1a) (converted)
Counter-ions that a name gives are not always drawn.
Ki vs 3 nM: less than gives criterion met; not less than gives criterion not met.

q: Lab note: confirm whether the reported Ki for this compound is below 3 nM, equality not counting. compound: CN(C)CC(=O)N1Cc2cc(Cl)ccc2-n2c(nnc2[C@H]2CC[C@H](c3nsc4ccccc43)CC2)C1 [Example 25]
a: criterion met

q: Lab note: confirm whether the reported Ki for this compound is below 3 nM, equality not counting. compound: CN1Cc2cc(Cl)ccc2-n2c(nnc2[C@H]2CC[C@H](c3noc4ncccc43)CC2)C1 [Example 18]
a: criterion met

q: Lab note: confirm whether the reported Ki for this compound is below 3 nM, equality not counting. compound: Clc1ccc2c(c1)CNCc1nnc([C@H]3CC[C@H](c4noc5ncccc54)CC3)n1-2 [Example 17, hydrochloride]
a: criterion not met

Continuing:
q: Lab note: confirm whether the reported Ki for this compound is below 3 nM, equality not counting. compound: Clc1ccc2c(c1)CNCc1nnc([C@H]3CC[C@H](c4noc5ccccc54)CC3)n1-2 [Example 5, hydrochloride]
a: criterion met

q: Lab note: confirm whether the reported Ki for this compound is below 3 nM, equality not counting. compound: CN1Cc2cc(Cl)ccc2-n2c(nnc2[C@H]2CC[C@H](c3nsc4ccccc43)CC2)C1 [Example 21]
a: criterion met

q: Lab note: confirm whether the reported Ki for this compound is below 3 nM, equality not counting. compound: CNCCN1Cc2cc(Cl)ccc2-n2c(nnc2[C@H]2CC[C@H](c3nsc4ccccc43)CC2)C1 [Example 23]
a: criterion met

* * *

Below, each entry is listed alongside its reported Ki.
Target: human V1a receptor (Homo sapiens)
Construct: expressed in transfected cells; host or cells: HEK293 cells, transiently transfected; cell membranes
Test: human V1a receptor binding (3H-Vasopressin SPA, HEK293 membranes)
Number only, in nM; omit the unit.

Some compounds with known Ki results, for comparison:
Lab note: compound Clc1ccc2c(c1)CN(C1CCC1)Cc1nnc([C@H]3CC[C@H](c4nsc5ccccc54)CC3)n1-2 tested on human V1a receptor (Homo sapiens); recorded Ki was 0.302

Lab note: compound CC(=O)N1Cc2cc(Cl)ccc2-n2c(nnc2[C@H]2CC[C@H](c3nsc4ccccc43)CC2)C1 tested on human V1a receptor (Homo sapiens); recorded Ki was 0.398

Please turn your attention to the following entry.
Lab note: compound Clc1ccc2c(c1)CNCc1nnc([C@H]3CC[C@@H](c4nsc5ccccc54)CC3)n1-2 tested on human V1a receptor (Homo sapiens); recorded Ki was 25.7

* * *

Biological target: human V1a receptor (Homo sapiens, UniProt P37288)
Construct: expressed in transfected cells; host or cells: HEK293 cells, transiently transfected; cell membranes
Test: human V1a receptor binding (3H-Vasopressin SPA, HEK293 membranes)
Details: 3H-Vasopressin displacement, membranes of HEK293 cells transiently transfected with human V1a receptor; Ki by Cheng-Prusoff; read-out: pKi (hV1a) (converted)
Counter-ions that a name gives are not always drawn.
MEASURE: Ki (nM)
Number only, in nM; omit the unit.

Some compounds with known Ki results, for comparison:
Looking up CC(C)(C)OC(=O)N1Cc2cc(Cl)ccc2-n2c(nnc2[C@H]2CC[C@H](c3noc4ccc(F)cc43)CC2)C1 , I see its Ki listed as 3.24

Looking up CC(C)(C)OC(=O)N1Cc2cc(Cl)ccc2-n2c(nnc2[C@H]2CC[C@@H](c3noc4ccccc43)CC2)C1 , I see its Ki listed as 8.91

Looking up CN1Cc2cc(Cl)ccc2-n2c(nnc2[C@H]2CC[C@H](c3noc4cccnc43)CC2)C1 , I see its Ki listed as 0.708

Looking up CC(C)(C)OC(=O)N1Cc2cc(Cl)ccc2-n2c(nnc2[C@H]2CC[C@@H](c3nsc4ccccc43)CC2)C1 , I see its Ki listed as 1.1

Looking up CN1Cc2cc(Cl)ccc2-n2c(nnc2[C@H]2CC[C@H](c3noc4cc(F)ccc43)CC2)C1 , I see its Ki listed as 1.2

Looking up CC(C)(C)OC(=O)N1Cc2cc(Cl)ccc2-n2c(nnc2[C@H]2CC[C@H](c3nsc4cnccc43)CC2)C1 , I see its Ki listed as 5.5

Looking up CC(C)(C)OC(=O)N1Cc2cc(Cl)ccc2-n2c(nnc2[C@H]2CC[C@H](c3noc4cc(F)ccc43)CC2)C1 , I see its Ki listed as 4.79

Looking up CN1Cc2cc(Cl)ccc2-n2c(nnc2[C@H]2CC[C@H](c3nsc4cnccc43)CC2)C1 , I see its Ki listed as 0.891

Looking up Clc1ccc2c(c1)CNCc1nnc([C@H]3CC[C@@H](c4noc5ccccc54)CC3)n1-2 [Example 3, hydrochloride] , I see its Ki listed as 11.2

Looking up Clc1ccc2c(c1)CNCc1nnc([C@H]3CC[C@H](c4noc5cccnc54)CC3)n1-2 [Example 14, hydrochloride] , I see its Ki listed as 2.19

Continuing:
Looking up CS(=O)(=O)N1Cc2cc(Cl)ccc2-n2c(nnc2[C@H]2CC[C@H](c3nsc4ccccc43)CC2)C1 , I see its Ki listed as 0.302

Looking up Clc1ccc2c(c1)CNCc1nnc([C@H]3CC[C@H](c4nsc5cnccc54)CC3)n1-2 , I see its Ki listed as 2.57

Looking up CN1Cc2cc(Cl)ccc2-n2c(nnc2[C@H]2CC[C@@H](c3nsc4ccccc43)CC2)C1 , I see its Ki listed as 4.27

Looking up CC(C)(C)OC(=O)N1Cc2cc(Cl)ccc2-n2c(nnc2[C@H]2CC[C@H](c3noc4ccccc43)CC2)C1 , I see its Ki listed as 4.79

* * *

Biological target: human V1a receptor (Homo sapiens, UniProt P37288)
Construct: expressed in transfected cells; host or cells: HEK293 cells, transiently transfected; cell membranes
Assay: human V1a receptor binding (3H-Vasopressin SPA, HEK293 membranes)
Conditions: 3H-Vasopressin displacement, membranes of HEK293 cells transiently transfected with human V1a receptor; Ki by Cheng-Prusoff; read-out: pKi (hV1a) (converted)
Counter-ions that a name gives are not always drawn.
Below, each entry is listed alongside its reported Ki.
Number only, in nM; omit the unit.

Some compounds with known Ki results, for comparison:
Looking up CC(C)(C)OC(=O)N1Cc2cc(Cl)ccc2-n2c(nnc2[C@H]2CC[C@H](c3nsc4ccccc43)CC2)C1 , I see its Ki listed as 7.59

Looking up Fc1ccc2c(c1)onc2[C@H]1CC[C@H](c2nnc3n2-c2ccc(Cl)cc2CNC3)CC1 [Example 8, hydrochloride] , I see its Ki listed as 1.51

Looking up CC(C)(C)OC(=O)N1Cc2cc(Cl)ccc2-n2c(nnc2[C@H]2CC[C@H](c3noc4cccnc43)CC2)C1 , I see its Ki listed as 2.69

Looking up Clc1ccc2c(c1)CNCc1nnc([C@H]3CC[C@H](c4nsc5cccnc54)CC3)n1-2 , I see its Ki listed as 1.1

Looking up CC(C)(C)OC(=O)N1Cc2cc(Cl)ccc2-n2c(nnc2[C@H]2CC[C@H](c3nsc4cccnc43)CC2)C1 , I see its Ki listed as 4.27

Continuing:
Looking up Fc1ccc2onc([C@H]3CC[C@H](c4nnc5n4-c4ccc(Cl)cc4CNC5)CC3)c2c1 [Example 11, hydrochloride] , I see its Ki listed as 2.09

Looking up CN1Cc2cc(Cl)ccc2-n2c(nnc2[C@H]2CC[C@H](c3noc4ccc(F)cc43)CC2)C1 , I see its Ki listed as 0.794

Looking up CN1Cc2cc(Cl)ccc2-n2c(nnc2[C@H]2CC[C@H](c3nsc4cccnc43)CC2)C1 , I see its Ki listed as 0.794
